Readings of logP for the listed compounds
- assay protocol: logP determination by HPLC on a reversed-phase column (C 18), EEC Directive 79/831 Annex V.A8
- Assay type: physicochemical
- condition info: method marker [a] (footnote not shown); isomer A / isomer B / isomer mixture as noted in the cell

{"columns": ["compound", "logP"],
 "data": [
  ["Cc1cccnc1C(=NOCCCON=C(c1ncccc1C)C(C)C)C(C)C (mixture of isomers)", "4.13^[a]"],
  ["CC(=NOCCCON=C(C)c1ccnc(C)n1)c1ccnc(C)n1", "3.06^[a]"],
  ["CC(=NOCCCON=C(C)c1cccc(Br)n1)c1cccc(Br)n1", "5.99^[a]"],
  ["CC(=NOCC(C)CON=C(C)c1ccc(C)cn1)c1ccc(C)cn1 (stereo not shown)", "3.67^a]"],
  ["CCCC(=NOCCCON=C(CCC)c1cccc(C)n1)c1cccc(C)n1", "5.83^[a]"],
  ["C=C(CON=C(CC)c1cccc(C)n1)CON=C(CC)c1cccc(C)n1", "5.16^[a]"],
  ["Cc1cccc(C(=NOCC(C)CON=C(c2cccc(C)n2)C2CC2)C2CC2)n1 (single isomer, unassigned) [compound 162]", "3.28^[a] (isomer A)"],
  ["CCCC(=NOCC(C)CON=C(CCC)c1ncccc1C)c1ncccc1C (mixture of isomers)", "4.73^[a]"],
  ["CC(=NOCC(C)CON=C(C)c1ncccc1C)c1ncccc1C (stereo not shown)", "3.12^[a]"],
  ["Cc1cccnc1C(Cc1ccccc1)=NOCCCON=C(Cc1ccccc1)c1ncccc1C (single isomer, unassigned) [Compound 97]", "4.89^[a] (isomer A)"],
  ["CC(=NOCC(O)CON=C(C)c1ccccn1)c1ccccn1 (stereo not shown)", "1.50^[a]"],
  ["Cc1cccnc1C(Cc1ccccc1)=NOCCCON=C(Cc1ccccc1)c1ncccc1C (single isomer, unassigned) [compound 96]", "5.54^[a] (isomer B)"],
  ["CC(=NOCC(C)CON=C(C)c1cc(-c2ccccc2)ccn1)c1cc(-c2ccccc2)ccn1 (stereo not shown)", "6.33^[a]"],
  ["C=CCCC(=NOCC(C)CON=C(CCC=C)c1ncccc1C)c1ncccc1C (stereo not shown)", "5.06^[a]"],
  ["CC(=NOCC(C)CON=C(C)c1csc(Cl)n1)c1csc(Cl)n1 (mixture of isomers)", "5.16^[a]"],
  ["CCC(=NOCCCON=C(CC)c1ncccc1C)c1ncccc1C (single isomer, unassigned) [compound 94]", "3.65^[a] (isomer B)"]
]}

---

- assay protocol: logP determination by HPLC on a reversed-phase column (C 18), EEC Directive 79/831 Annex V.A8
- Type: physicochemical
- condition info: HCO2H; HPLC reversed-phase column (C 18), 43° C.; read-out: logP (HCO2H)
recorded endpoint: chromatographic logP

{"columns": ["given smiles", "recorded endpoint", "observed"],
 "data": [
  ["C/C(=N\\OC[Si](C)(C)CO/N=C(\\C)c1cccc(C)n1)c1cccc(C)n1", "chromatographic logP", 4.5]
]}

---

- assay protocol: logP determination by HPLC on a reversed-phase column (C 18), EEC Directive 79/831 Annex V.A8
- Assay type: physicochemical
- condition info: method marker [a] (footnote not shown); isomer A / isomer B / isomer mixture as noted in the cell

{"columns": ["molecule", "logP"],
 "data": [
  ["CC(=NOCCCON=C(C)c1cncc(C)c1)c1cncc(C)c1", "1.54^a]"],
  ["Cc1cccc(C(=NOCCCON=C(c2cccc(C)n2)C(C)C)C(C)C)n1 (single isomer, unassigned) [Compound 88]", "5.52^[a] (isomer B)"],
  ["CC(=NOCCCON=C(C)c1cccc(Cc2ccccc2)n1)c1cccc(Cc2ccccc2)n1", "6.95^[a]"],
  ["Cc1cccnc1C(Cc1ccccc1)=NOCC(C)CON=C(Cc1ccccc1)c1ncccc1C (single isomer, unassigned) [compound 109]", "6.00^[a] (isomer B)"]
]}

---

# logP per record follows
- assay protocol: logP determination by HPLC on a reversed-phase column (C 18), EEC Directive 79/831 Annex V.A8
- Type: physicochemical
- condition info: value marked [b]

{"columns": ["compound", "logP"],
 "data": [
  ["CC(=NOCC(C)(C)CON=C(C)c1cccc(C)n1)c1ccc2c(c1)OCO2 [compound 412]", "5.08^[b]"],
  ["CC(=NOCC1(CON=C(C)c2nc(C)ccc2C)CC1)c1nc(C)ccc1C (single isomer, unassigned) [compound 764]", "2.17^[b]"],
  ["CC(=NOCC1(CON=C(C)c2nc(C)ccc2C)CC1)c1nc(C)ccc1C (single isomer, unassigned) [compound 765]", "3.15^[b]"],
  ["CC(=NOCCCCCCON=C(C)c1cc2ccccc2o1)c1cccc(C)n1 [compound 393]", "5.78^[b]"]
]}

---

List of logP values.
- assay protocol: logP determination by HPLC on a reversed-phase column (C 18), EEC Directive 79/831 Annex V.A8
- Format: physicochemical
- condition info: method marker [b]; isomer A / isomer B / isomer mixture as noted in the cell

{"columns": ["molecule", "logP"],
 "data": [
  ["C=C(CON=C(C)c1cc(C)c2ccccc2n1)CON=C(C)c1cc(C)c2ccccc2n1 [compound 160]", "7.00^b]"],
  ["CC(=NOCC(C)(C)CON=C(C)c1cccc(C)n1)c1cccc(C)n1 (single isomer, unassigned) [Compound 141]", "4.40^[b] (isomer A)"],
  ["CCC(=NOCC(C)CON=C(CC)c1nc(C)c(C)c(C)n1)c1nc(C)c(C)c(C)n1 (centres unmarked) [Compound 254]", "4.38^[b]"],
  ["CON=C(CON=C(C)c1cccc(C)n1)CON=C(C)c1cccc(C)n1 [compound 113]", "3.26^[b]"],
  ["C=C(CO/N=C(\\N)c1csc(C)n1)CO/N=C(\\N)c1csc(C)n1 [Compound 27]", "3.19^[b]"],
  ["C=C(CON=C(C)c1cccc(Br)n1)CON=C(C)c1cccc(Br)n1 [compound 150]", "5.96^[b]"],
  ["COc1cccc(C(C)=NOCC(=O)CON=C(C)c2cccc(OC)n2)n1 [compound 247]", "4.61^[b]"],
  ["CC(=NOCCCCCCON=C(C)c1cccc(C)n1)c1cccc(C)n1 [Compound 73]", "4.47^[b]"]
]}

---

- assay protocol: logP determination by HPLC on a reversed-phase column (C 18), EEC Directive 79/831 Annex V.A8
- Type: physicochemical
- condition info: value marked [b]
recorded endpoint: logP

{"columns": ["compound", "recorded endpoint", "observed"],
 "data": [
  ["CC(=NOCC(C)(C)CON=C(C)c1cccc(C)n1)c1ccc(Cl)cc1", "logP", "6.22^[b]"],
  ["C=C(CON=C(C)c1cccc(C)n1)CON=C(C)c1ccccc1Cl", "logP", "4.74^[b]"],
  ["CC(=NOCC1(CON=C(C)c2ccc(C)c(C)n2)COC(=O)N1)c1ccc(C)c(C)n1 (stereo not drawn)", "logP", "1.96^[b]"],
  ["COCc1nc(C(N)=NOC/C=C/CON=C(N)c2nc(COC)c(C)c(COC)n2)nc(COC)c1C (single isomer, unassigned) [compound 769]", "logP", "1.75^[b] (isomer B)"],
  ["CCOC(=O)C(C)(CON=C(C)c1cc(C)cc(C)n1)CON=C(C)c1cc(C)cc(C)n1 (stereo not drawn)", "logP", "2.79^[b]"],
  ["CCCc1cccc(C(C)=NOCC(C)CON=C(C)c2cccc(C)n2)n1 (stereo not drawn)", "logP", "5.84^[b]"],
  ["CC(=NOCC(C)CON=C(C)c1cccc(C)n1)c1ccccc1 (stereo not drawn)", "logP", "4.91^[b]"],
  ["C=C(CON=C(C)c1ccccc1)CON=C(C)c1cccc(C)n1", "logP", "4.51^[b]"],
  ["C=C(CON=C(C)c1cccc(C)n1)CON=C(CC)c1cccc(C)n1", "logP", "4.30^[b]"],
  ["CCC(C)(CON=C(C)c1cc(C)cc(C)n1)CON=C(C)c1cc(C)cc(C)n1 (stereo not drawn)", "logP", "3.91^[b]"],
  ["CC(=NOCCCCON=C(C)c1cccc(C)n1)c1cncc(C)c1", "logP", "2.20^[b]"],
  ["CC(=NOCC(C)(C)CON=C(C)c1cccc(C)n1)c1cccnc1", "logP", "2.80^[b]"],
  ["CC(=NOCC(O)CON=C(C)c1cccc(C)n1)c1cccc(C)n1 (stereo not drawn)", "logP", "1.46^[b]"],
  ["CC(=NOCCCCON=C(C)c1cccc(C(C)C)n1)c1cccc(C)n1", "logP", "5.97^[b]"],
  ["COc1cc(C)nc(C(C)=NOCCCCON=C(C)c2cccc(C)n2)c1", "logP", "3.11^[b]"],
  ["COc1ccc(C(C)=NOCC(C)CON=C(C)c2ccc(OC)c(C)n2)nc1C (stereo not drawn)", "logP", "5.21^[b]"],
  ["C=C(CON=C(C)c1cccnc1)CON=C(C)c1cccc(C)n1", "logP", "2.15^[b]"],
  ["CC(=NOCC(C)(C)CON=C(c1ncccc1C)C(C)C)c1cccc(C)n1", "logP", "4.56^[b]"]
]}
